B1: TRIM63 (parent)
chain: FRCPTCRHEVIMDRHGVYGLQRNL

# Variants of: B1
# assay: protein stability index of a GFP-peptide fusion (GPS, HEK-293T) (PSI 1-6); higher = more stable;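 also: lentivirally expressed fusions sorted by FACS into six bins by GFP to DsRed ratio, PSI derived from sequencing read proportions per bin multiplied by bin number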
# details: c terminus: a fixed tail appended
recorded-endpoint: protein stability index
Please give the numeric answer without any surrounding text.

Use the examples below as a reference point.
L20C: 2.39
L20N: 2.05
R2I: 2.79
H15P: 2.66
M12W: 2.17

Which protein stability index is listed for T5F ?
2.32

Check V10T too.
2.62
